Test: gradient 5% acetonitrile 3 min, to 50% in 2 min, to 85% in 15 min, held 3 min, 100 µL/min
Conditions: column: Zorbax Extend-C18 2.1 x 50 mm; eluents: water / acetonitrile, 0.1% formic acid
Attribute Measured: RP-LC retention time (s)

Solved entries:
{"columns": ["Compound", "RP-LC retention time [s]"],
 "data": [
  ["CCOc1ncccc1C(=O)N1CCN(c2ccc(-c3ccc(OC)c(OC)c3)nn2)CC1", 606],
  ["COc1cc(=O)c(C(N)=O)nn1-c1ccc(F)cc1", 579]
]}

a. Cc1cc(F)ccc1NC(=O)Cn1c(C)cc(-c2nnc(C3CCC3)o2)c1C
b. O=C1NC(C(=O)NCc2ccco2)Cn2cccc21 (stereo unspecified)
Task: Would you let me know which has the greater RP-LC retention time value, a or b ? Provide the label of your selected option as the answer.
Result: a

P. Cc1nn(-c2ccc(Cl)cc2)c(C)c1S(=O)(=O)N1CCC(C(=O)N2CCN(C)CC2)CC1
Q. Cc1ccc2[nH]cc(CCNC(=O)CSCc3nnc(C(=O)Nc4ccc(F)cc4)s3)c2c1
Task: # query: argmin of RP-LC retention time over P and Q Answer by stating the label of the chosen item.
Result: P
(P: 642 s, Q: 918 s)

Source: the METLIN SMRT retention time set (Domingo-Almenara et al. 2019)
